System: Streptococcus mutans
Procedure summary: Minimum plaque inhibitory concentration using a standard test organism, Streptococcus mutans OMZ-61
Format: functional, organism-based
Measured parameter: Concentration

INSERT INTO results (compound, assay_target, reported_measurement) VALUES
  ('Br.Br.N=c1ccn(CCCCCCCCCCn2ccc(=N)cc2)cc1', 'Streptococcus mutans', '> 1%'),
  ('Br.Br.CCCCCCCCCCCCN=c1ccn(CCCCCCCn2ccc(=NCCCCCCCCCCCC)cc2)cc1', 'Streptococcus mutans', '0.1%'),
  ('Br.Br.CCCCC(CC)CN=c1ccn(CCCCCCCCCCn2ccc(=NCC(CC)CCCC)cc2)cc1 (stereo not drawn)', 'Streptococcus mutans', '0.003%'),
  ('Br.Br.N=c1ccn(CCCCCCCCn2ccc(=N)cc2)cc1', 'Streptococcus mutans', '> 1%'),
  ('Br.Br.CCCCCCCCCN=c1ccn(CCCCCCCCCCn2ccc(=NCCCCCCCCC)cc2)cc1', 'Streptococcus mutans', '0.004%');

Field request: Concentration | item: Br.Br.CCCCCCCCCN=c1ccn(CCCCCCCCn2ccc(=NCCCCCCCCC)cc2)cc1 0.004%

What Concentration value was documented for this compound, Br.Br.CCCCC(CC)CN=c1ccn(CCCCCCCCn2ccc(=NCC(CC)CCCC)cc2)cc1 (stereo not drawn) ? 0.004%

Which Concentration is listed for Br.Br.c1cn(CCCCn2ccc(=NC3CCCCC3)cc2)ccc1=NC1CCCCC1 ? > 1%

###

System: Escherichia coli
Procedure summary: Antimicrobial minimum inhibitory concentration against Escherichia coli 100/B22
Type: functional
Below is a list of entries, each paired with its recorded MIC value.
Write the answer as a number in mg/L, unit excluded.

INSERT INTO assay_data (molecule, assay_target, measured_parameter, unit_of_measure, reported_measurement) VALUES
  ('Br.Br.c1cn(CCCCCCCCCn2ccc(=NC3CCCCC3)cc2)ccc1=NC1CCCCC1', 'Escherichia coli', 'MIC', 'mg/L', 31.3),
  ('CCCCCCCCN=c1ccn(CCCCCCCCCCn2ccc(=NCCCCCCCC)cc2)cc1.Cl.Cl [OCTENIDINE HYDROCHLORIDE]', 'Escherichia coli', 'MIC', 'mg/L', 1),
  ('CCCCCCN=c1ccn(CCCCCCCCCCCCCCn2ccc(=NCCCCCC)cc2)cc1.Cl.Cl', 'Escherichia coli', 'MIC', 'mg/L', 0.5),
  ('Br.Br.CCCCCCCCCN=c1ccn(CCCCCCCCCn2ccc(=NCCCCCCCCC)cc2)cc1', 'Escherichia coli', 'MIC', 'mg/L', 2),
  ('CCCCCCCCN=c1ccn(CCCCCCCCn2ccc(=NCCCCCCCC)cc2)cc1.Cl.Cl', 'Escherichia coli', 'MIC', 'mg/L', 0.5);

Using the record for Br.Br.CCCCCCN=c1ccn(CCCCn2ccc(=NCCCCCC)cc2)cc1 , report its MIC. 125

What MIC value was documented for this molecule, CCCCCCCN=c1ccn(CCCCCCCCCCn2ccc(=NCCCCCCC)cc2)cc1.Cl.Cl ? 0.5

What value of MIC has been reported for the following molecule? CCCCCCCN=c1ccn(CCCCCCCCn2ccc(=NCCCCCCC)cc2)cc1.Cl.Cl 2

###

Catalogue of MIC values
Test system: Escherichia coli
Procedure summary: Antimicrobial minimum inhibitory concentration against Escherichia coli 100/B22
Format: functional
The figure you give is taken to be in mg/L; do not add the unit.

INSERT INTO measurements (compound, reported_measurement) VALUES
  ('CS(=O)(=O)O.CS(=O)(=O)O.Clc1ccc(N=c2ccn(CCCCCCCCCCn3ccc(=Nc4ccc(Cl)cc4)cc3)cc2)cc1', 1.6);

Report MIC for Br.Br.CCCCC(CC)CN=c1ccn(CCCCCn2ccc(=NCC(CC)CCCC)cc2)cc1 (stereo unspecified) please. 15.6

Given the compound Br.Br.CCCCCCCCCCN=c1ccn(CCCCCCCCCn2ccc(=NCCCCCCCCCC)cc2)cc1 , what is its reported MIC? 3.9

Sample Br.Br.CCCCCCCCCN=c1ccn(CCCCCCCCCCCCn2ccc(=NCCCCCCCCC)cc2)cc1 — what was its MIC? 3.9

Fill blank: measured MIC of the compound Br.Br.CCCCCCCCCCN=c1ccn(CCCCCCCn2ccc(=NCCCCCCCCCC)cc2)cc1 is ____. 3.9

I'd like to know its MIC. The compound in question is Br.Br.CCCCCCCCCCCCN=c1ccn(CCCCCCCn2ccc(=NCCCCCCCCCCCC)cc2)cc1 62.5

For the compound shown here, Br.Br.CCCCCCN=c1ccn(CCCCCCn2ccc(=NCCCCCC)cc2)cc1 , give the reported MIC. 7.8

Item under review: Br.Br.CCCCCCCCCCCCN=c1ccn(CCCCCCn2ccc(=NCCCCCCCCCCCC)cc2)cc1 . Reported MIC? 62.5

Would you mind telling me what MIC value was observed for Br.Br.CCCCCCCCCCN=c1ccn(CCCCCCCCn2ccc(=NCCCCCCCCCC)cc2)cc1 ? 3.9

Give its MIC value. Item: Br.Br.CCCCC(CC)CN=c1ccn(CCCCCCCCCCCCn2ccc(=NCC(CC)CCCC)cc2)cc1 (stereo unspecified) 1
